Value source: paper PMC5540273

system: DRAK1; construct: gene STK17A; conditions: concentration: 1 μM,replicates: in singlicate; n = 1;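 note: KINOMEscan kinase panel screen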
For each record, write down the corresponding %Inh.
One number for each entry, in %.

[
  {
    "Smiles entry": "CC(C)S(=O)(=O)N1CCN(Cc2ccc3c(c2)nc(NC(=O)c2ccsc2)n3C[C@H](O)c2ccccc2)CC1",
    "Measured target": "DRAK1",
    "%Inh / %": 72
  },
  {
    "Smiles entry": "Cc1ccn2nc(-c3ccc(F)cc3)c(-c3ccncc3)c2c1.Cl",
    "Measured target": "DRAK1",
    "%Inh / %": 2
  }
]

Inquiry: State the recorded %Inh for this entry: CC(=O)Nc1ccc(-c2cc3ncnc(SCC(=O)O)c3s2)cc1
Reply text: 97.9

---

For each record, write down the corresponding %Inh.
test system: MLK3; settings: concentration: 1 μM,replicates: in singlicate; n = 1
Give bare numbers, in %.

Worked examples follow.
[
  {
    "Compound": "Cn1ccc2ncnc(Oc3ccc(NC(=O)Nc4cccc(C(F)(F)F)c4)c(Cl)c3)c21",
    "Readout": "%Inh",
    "Val": 2
  },
  {
    "Compound": "Cc1n[nH]c2cc(Nc3ccnc(Nc4cccc(CN5CCOCC5)c4)n3)ccc12 [GW682569]",
    "Readout": "%Inh",
    "Val": 58
  },
  {
    "Compound": "O=C1NCCc2[nH]c(-c3ccncc3)cc21",
    "Readout": "%Inh",
    "Val": 13
  },
  {
    "Compound": "Cl.Nc1n[nH]c2cc(-c3ccccn3)ccc12 [GSK2189892]",
    "Readout": "%Inh",
    "Val": 15
  },
  {
    "Compound": "O=C(NCC1CC1)c1ccc(-c2cc(C(=O)NC3CC3)ccc2F)cc1 [GW810445]",
    "Readout": "%Inh",
    "Val": 0
  }
]

Record %Inh for all entries; do not skip any.
1. CC(=O)c1c(-c2ccncc2)[nH]c(-c2ccncc2)c1C [GW493036]
2. C[C@@H](Oc1cc(-n2cnc3ccc(-c4ccncc4)cc32)sc1C(N)=O)c1ccccc1Cl [GSK483724]
3. FC(F)(F)c1cc(Br)cc(Nc2nccc(-c3cnn4ncccc34)n2)c1 [GW810578]
4. O=C(Nc1cccc(C(F)(F)F)c1)c1cccc(Oc2ccc3nccn3n2)c1

Reply text:
0
31
11
8

---

system: CDK8; conditions: concentration: 1 μM,replicates: in singlicate; n = 1
Readout: %Inh (%)
Give bare numbers, in %.

Record %Inh for all entries; do not skip any.
1. CNC(=O)c1ccccc1Nc1nc(Nc2cccc(CS(C)(=O)=O)c2)ncc1C.O=CO
2. Cc1cccc(-c2nc(Nc3ccncc3)c3sccc3n2)n1
3. CCn1c(-c2nonc2N)nc2cncc(CNC3CCNCC3)c21.Cl
4. Cn1ccc2ncnc(Oc3ccc(NC(=O)Nc4ccnc(C(F)(F)F)c4)c(Cl)c3)c21
5. O=C1NCCc2[nH]c(-c3ccncc3)cc21

Reply text:
1: 4; 2: 8; 3: 24; 4: 95.5; 5: 19

---

test system: FRK; conditions: concentration: 1 μM,replicates: in singlicate; n = 1
Readout: %Inh

[
  {
    "Compound": "N#Cc1cccc(C(=O)NC2CCN(c3ccnc(Nc4ccc(F)cc4)n3)C2)c1 (stereo not shown)",
    "Val": "6%"
  },
  {
    "Compound": "CC(C)c1nc(-c2cccc(NS(=O)(=O)c3ccccc3)c2)c(-c2ccnc(Nc3ccc4c(c3)CN(C)CC4)n2)s1",
    "Val": "98.2%"
  },
  {
    "Compound": "COc1cc2nccc(Nc3ccc(Oc4ccccc4)cc3)c2cc1OC.Cl",
    "Val": "66%"
  }
]

Inquiry: State the recorded %Inh for this entry: O=C(Nc1ccc(Oc2ccc3nc(NC(=O)C4CC4)cn3n2)c(F)c1)c1cccn(-c2ccccc2)c1=O
Reply text: 45%

---

system: HIPK3; details: concentration: 1 μM,replicates: in singlicate; n = 1
Readout: %Inh

[
  {
    "Compound": "Cc1ccc2c(-c3ccnc(Nc4ccc(C(F)(F)F)cc4)n3)cnn2n1",
    "%Inh": "79%"
  },
  {
    "Compound": "N#Cc1cccc(C(=O)NC2CCN(c3ccnc(Nc4ccc(F)cc4)n3)C2)c1 (stereo not drawn)",
    "%Inh": "0%"
  },
  {
    "Compound": "Cl.c1ccc(Oc2ccc(Nc3ccnc4cc(-c5ccc(CN6CCNCC6)o5)ccc34)cc2)nc1",
    "%Inh": "7%"
  },
  {
    "Compound": "O=C1NCCc2[nH]c(-c3ccncc3)cc21",
    "%Inh": "95.5%"
  },
  {
    "Compound": "Cc1nnc(-c2ccc3occ(-c4ccc(S(C)=O)cc4)c3n2)o1 (stereo not drawn)",
    "%Inh": "0%"
  }
]

Record %Inh for all entries; do not skip any.
1. COc1cc(Nc2nccc(N3CCC(NC(=O)c4cccc(C#N)c4)C3)n2)cc(OC)c1OC (stereo not drawn)
2. CCCC(=O)Nc1n[nH]c2ncccc12
3. O=C(Nc1n[nH]c2cc(-c3ccco3)ccc12)C1CC1

Reply text:
["3%", "0%", "31%"]

Inquiry: State the recorded %Inh for this entry: CN(c1ccc2c(c1)nc(NCc1ccc(F)cc1)n2C)c1ccnc(Nc2ccc(CS(C)(=O)=O)cc2)n1.Cl
Reply text: 47%

---

For each record, write down the corresponding %Inh.
system: NLK; settings: concentration: 1 μM,replicates: in singlicate; n = 1
Numbers only, in %.

Worked examples follow.
[
  {
    "Smiles entry": "Cn1ccc2ncnc(Oc3ccc(NC(=O)Nc4cnn(C(C)(C)C)c4)c(Cl)c3)c21",
    "Measured target": "NLK",
    "Val": 38
  },
  {
    "Smiles entry": "CN(c1ccc2c(c1)nc(NCc1ccc(F)cc1)n2C)c1ccnc(Nc2ccc(CS(C)(=O)=O)cc2)n1.Cl",
    "Measured target": "NLK",
    "Val": 0
  },
  {
    "Smiles entry": "Cn1ccc2ncnc(Oc3ccc(NC(=O)Nc4cc(C(C)(C)C)on4)c(Cl)c3)c21",
    "Measured target": "NLK",
    "Val": 67
  },
  {
    "Smiles entry": "O=C1NCCc2[nH]c(-c3ccncc3)cc21",
    "Measured target": "NLK",
    "Val": 22
  },
  {
    "Smiles entry": "c1ccc(Oc2ccc(Nc3ccnc4ccc(-c5ccccn5)cc34)cc2)cc1",
    "Measured target": "NLK",
    "Val": 13
  },
  {
    "Smiles entry": "C[C@@H]1CCN(C(=O)N2CCCC2)C[C@@H]1N(C)c1ncnc2[nH]ccc12",
    "Measured target": "NLK",
    "Val": 0
  },
  {
    "Smiles entry": "CCn1c(-c2nonc2N)nc2cncc(CNC3CCNCC3)c21.Cl",
    "Measured target": "NLK",
    "Val": 18
  },
  {
    "Smiles entry": "CCCC(=O)Nc1n[nH]c2ncccc12",
    "Measured target": "NLK",
    "Val": 0
  },
  {
    "Smiles entry": "CC(=O)Nc1nc2cnc(Nc3cc(NC(=O)c4cccc(CC(C)(C)C#N)c4)ccc3C)nc2s1",
    "Measured target": "NLK",
    "Val": 1
  }
]

Shifting focus to the molecule that follows.
Inquiry: State the recorded %Inh for this entry: Cn1ccc2ncnc(Oc3ccc(NC(=O)Nc4cncc(C(F)(F)F)c4)c(Cl)c3)c21
Reply text: 9

---

test system: HCK; details: concentration: 1 μM,replicates: in singlicate; n = 1
Kind request: treat 10% as inclusive, so %Inh at 10% or higher is satisfied, anything lower is not satisfied.

[
  {
    "Compound": "CC(C(=O)NC1CCN(c2ccnc(Nc3ccc(F)cc3)n2)C1)c1ccc(Cl)cc1 (stereo not drawn)",
    "Measured target": "HCK",
    "Cat": "not satisfied"
  }
]

Inquiry: In plain terms: is recorded %Inh at least 10% for COc1cccc(OC)c1C(=O)Nc1cccc(-c2nn3ccccc3c2-c2ccnc(Nc3cccc(F)c3)n2)c1 ?
Reply text: satisfied

Inquiry: In plain terms: is recorded %Inh at least 10% for Cc1nnc(-c2ccc3occ(-c4ccc(S(C)=O)cc4)c3n2)o1 (stereo not drawn) ?
Reply text: not satisfied

---

system: STK33; settings: concentration: 1 μM,replicates: in singlicate; n = 1
Readout: %Inh (%)
One number for each entry, in %.

Worked examples follow.
[
  {
    "Compound": "Cc1cccc(-c2nc(Nc3ccncc3)c3sccc3n2)n1 [GW869641]",
    "Unit abbreviation": "%",
    "%Inh": 27
  },
  {
    "Compound": "O=C(NOCC1CC1)c1cc(Br)c(F)c(F)c1Nc1ccc(I)cc1Cl",
    "Unit abbreviation": "%",
    "%Inh": 0
  },
  {
    "Compound": "CCn1c(-c2nonc2N)nc2cncc(CNC3CCNCC3)c21.Cl [SB-747651]",
    "Unit abbreviation": "%",
    "%Inh": 0
  },
  {
    "Compound": "Cn1ccc2ncnc(Oc3ccc(NC(=O)Nc4ccnc(C(F)(F)F)c4)c(Cl)c3)c21",
    "Unit abbreviation": "%",
    "%Inh": 0
  }
]

Shifting focus to the compound that follows.
Inquiry: State the recorded %Inh for this entry: CCN1CCN(CCCC(=O)Nc2n[nH]c3nc(-c4ccc(O)cc4)c(Br)cc23)CC1 [SB-731579]
Reply text: 0
